For each record, write down the corresponding pIC50.
target.under.test: Neutrophil collagenase (Homo sapiens, UniProt P22894)
Sequence (P22894 whole entry): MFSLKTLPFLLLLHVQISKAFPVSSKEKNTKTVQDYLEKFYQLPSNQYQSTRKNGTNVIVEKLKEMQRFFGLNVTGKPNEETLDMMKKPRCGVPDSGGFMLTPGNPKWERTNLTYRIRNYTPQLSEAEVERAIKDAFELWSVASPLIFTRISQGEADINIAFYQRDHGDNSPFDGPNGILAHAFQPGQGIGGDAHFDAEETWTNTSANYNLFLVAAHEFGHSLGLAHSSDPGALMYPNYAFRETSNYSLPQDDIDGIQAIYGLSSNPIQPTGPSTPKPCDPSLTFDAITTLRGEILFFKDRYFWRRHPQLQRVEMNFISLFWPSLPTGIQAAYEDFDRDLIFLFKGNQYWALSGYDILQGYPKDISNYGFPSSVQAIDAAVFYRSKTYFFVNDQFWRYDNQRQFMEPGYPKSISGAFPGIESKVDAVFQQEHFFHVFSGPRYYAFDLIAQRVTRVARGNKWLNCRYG
method.description: Inhibition of MMP8
Scale note: pIC50 = -log10(concentration in M).

What is its pIC50 for Neutrophil collagenase (Homo sapiens, UniProt P22894)? Entry: CC(C)ON([C@@H](C(=O)NO)C(C)C)S(=O)(=O)c1ccc(-c2ccc(OCc3ccc(Cl)cc3)cc2)cc1
7.20

What is its pIC50 for Neutrophil collagenase (Homo sapiens, UniProt P22894)? Entry: CC(C)ON(CC(=O)NO)S(=O)(=O)c1ccc(Oc2ccccc2)cc1
7.18

What is its pIC50 for Neutrophil collagenase (Homo sapiens, UniProt P22894)? Entry: COc1ccc(-c2ccc(S(=O)(=O)N(CC(=O)NO)OC(C)C)s2)cc1
6.96
